These measurements were taken from patent US20120045393A1.

% Bound overview
Target: LHRH receptor (LHRH binding sites) on EFO-27 human ovarian cancer cells (human)
Assay: direct binding of 177Lu-labeled peptide to EFO-27 cells, single concentration
Non-standard residues stand in square brackets, D forms with d. Bpa = N[C@@H](Cc1ccc(C(=O)c2ccccc2)cc1)C(=O)O; d2Nal = N[C@H](Cc1ccc2ccccc2c1)C(=O)O; d3Pal = N[C@H](Cc1cccnc1)C(=O)O; DO3A10CM = not defined here; dCfe4 = not defined here; Afe4 = not defined here; azaGly = NNC(=O)O
// units = %; emit number, no label

Some entries whose results are on file:
- BINDER: "XHWSHXWXPX (177Lu held by the N-terminal DO3A10CM: 177Lu-DO3A10CM-Sar-His-Trp-Ser-His-Darg-Trp-Bpa4-Pro-azaGly-NH2) [^177Lu-BRU-2443]"
  READOUT_KIND: "% Bound"
  MEASURED: 1.8
- BINDER: "XHWSHXWXPX (177Lu held by the N-terminal DO3A10CM: 177Lu-DO3A10CM-Sar-His-Trp-Ser-His-Darg-Trp-F5fe-Pro-azaGly-NH2) [^177Lu-BRU-2722]"
  READOUT_KIND: "% Bound"
  MEASURED: 0.36
- BINDER: "DO3A10CM-G[d2Nal][dCfe4][d3Pal]SH[dR]WYP[dA]-NH2 (reading uncertain; also: 177Lu complexed by DO3A10CM, printed as 177Lu-DO3A10CM-Gly-Dnal2-Dcfe4-Dpal3-Ser-His-Darg-Trp-Tyr-Pro-Dala-NH2) [^177Lu-BRU-2644]"
  READOUT_KIND: "% Bound"
  MEASURED: 2.13
- BINDER: "XHWSHXWXPX (177Lu held by the N-terminal DO3A10CM: 177Lu-DO3A10CM-Dnal2-His-Trp-Ser-His-Darg-Trp-Bpa4-Pro-azaGly-NH2) [^177Lu-BRU-2666]"
  READOUT_KIND: "% Bound"
  MEASURED: 13.2
- BINDER: "XHWSHXWXPX (177Lu held by the N-terminal DO3A10CM: 177Lu-DO3A10CM-Sar-His-Trp-Ser-His-Darg-Trp-Thy-Pro-azaGly-NH2) [^177Lu-BRU-2823]"
  READOUT_KIND: "% Bound"
  MEASURED: 1
- BINDER: "DO3A10CM-[d2Nal][Afe4]WSH[dR]W[Bpa]P[azaGly]-NH2 (reading uncertain; also: 177Lu held by N-terminal DO3A10CM, printed as 177Lu-DO3A10CM-Dnal2-Afe4-Trp-Ser-His-Darg-Trp-Bpa4-Pro-azaGly-NH2) [^177Lu-BRU-2812]"
  READOUT_KIND: "% Bound"
  MEASURED: 5.8
- BINDER: "XHWSHXWXPX (177Lu held by the N-terminal DO3A10CM: 177Lu-DO3A10CM-Sar-His-Trp-Ser-His-Darg-Trp-Dip-Pro-azaGly-NH2) [^177Lu-BRU-2721]"
  READOUT_KIND: "% Bound"
  MEASURED: 0.79
- BINDER: "XHWSHXWXPX (177Lu held by the N-terminal DO3A10CM: 177Lu-DO3A10CM-Meala-His-Trp-Ser-His-Darg-Trp-Bpa4-Pro-azaGly-NH2) [^177Lu-BRU-2736]"
  READOUT_KIND: "% Bound"
  MEASURED: 1.62
- BINDER: "XHWSHXWXPX (177Lu held by the N-terminal DO3A10CM: 177Lu-DO3A10CM-Damfe4-His-Trp-Ser-His-Darg-Trp-Bpa4-Pro-azaGly-NH2) [^177Lu-BRU-2757]"
  READOUT_KIND: "% Bound"
  MEASURED: 11.1
- BINDER: "XHWSHXWXPX (177Lu held by the N-terminal DO3A10CM: 177Lu-DO3A10CM-Adoa-Adoa-Sar-His-Trp-Ser-His-Darg-Trp-Bpa4-Pro-azaGly-NH2) [^177Lu-BRU-2896]"
  READOUT_KIND: "% Bound"
  MEASURED: 0.7

Would you mind telling me what % Bound value was observed for XFWSHXWXPX (177Lu held by the N-terminal DO3A10CM: 177Lu-DO3A10CM-Sar-Phe-Trp-Ser-His-Darg-Trp-Bpa4-Pro-azaGly-NH2) [^177Lu-BRU-2738] ? 1.41

# % Bound lookup, item XHWSHXWXPX (177Lu held by the N-terminal DO3A10CM: 177Lu-DO3A10CM-Dafe4-His-Trp-Ser-His-Darg-Trp-Bpa4-Pro-azaGly-NH2) [^177Lu-BRU-2810] 2.4

Please report the recorded % Bound for XHWSHXWXPX (177Lu held by the N-terminal DO3A10CM: 177Lu-DO3A10CM-Sar-His-Trp-Ser-His-Darg-Trp-Tha-Pro-azaGly-NH2) [^177Lu-BRU-2742] . 0.125
